- Assay Target: Plasminogen (Homo sapiens)
- Sequence (P00747 97-580 limits assumed): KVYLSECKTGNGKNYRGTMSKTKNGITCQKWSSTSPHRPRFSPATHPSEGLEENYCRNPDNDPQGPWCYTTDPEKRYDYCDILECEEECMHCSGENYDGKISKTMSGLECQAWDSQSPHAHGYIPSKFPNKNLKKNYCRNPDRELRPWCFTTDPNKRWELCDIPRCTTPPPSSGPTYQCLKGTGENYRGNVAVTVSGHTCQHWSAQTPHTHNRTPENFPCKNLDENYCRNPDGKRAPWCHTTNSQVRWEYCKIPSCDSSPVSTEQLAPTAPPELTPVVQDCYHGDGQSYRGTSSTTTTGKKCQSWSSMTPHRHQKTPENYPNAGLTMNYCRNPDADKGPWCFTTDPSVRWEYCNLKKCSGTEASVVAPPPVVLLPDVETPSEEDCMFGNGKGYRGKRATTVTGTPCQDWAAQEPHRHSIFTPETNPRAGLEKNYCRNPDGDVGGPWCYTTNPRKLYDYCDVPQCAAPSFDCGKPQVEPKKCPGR
- Sequence (P00747 581-810 limits assumed): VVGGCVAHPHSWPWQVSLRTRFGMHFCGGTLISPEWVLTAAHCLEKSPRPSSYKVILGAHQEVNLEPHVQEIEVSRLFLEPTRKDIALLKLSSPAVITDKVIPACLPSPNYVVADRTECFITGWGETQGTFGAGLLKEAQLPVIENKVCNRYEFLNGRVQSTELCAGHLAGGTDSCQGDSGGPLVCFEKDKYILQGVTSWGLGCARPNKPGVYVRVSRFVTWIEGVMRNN
- Protocol Details: Amidolytic Activity Assay (Plasmin)
- Applied Conditions: pH 7.4
Measurement Label: Ki (µM)
Could you give me the number in µM? Just the number is fine.

Req: Fill in Ki for C[C@H](NC(=O)[C@H](N)CO)C(=O)N[C@@H](CCCNC(=N)N)C(=O)NCCCO [H-D-Ser-Ala-Arg-NH-(CH2)3-OH (10)] tested with Plasminogen (Homo sapiens).
Resp: 1090
